system: breast cancer cell line MX-1; assay: MX-1 cell line proliferation assay; format: cell-based; settings: MX-1 cells, 3-day proliferation assay, Cell Titer Glo; read-out: Cellular proliferation: EC50
quantity measured: pEC50
Please treat pEC50 as minus the base-10 logarithm of the molar concentration.

INSERT INTO results (molecule, experimental_target, data_value) VALUES
  ('Cn1cc2c3c(c[nH]c3c1=O)CN(CCc1ccc3c(c1)OCO3)c1c(F)cc(F)cc1-2', 'breast cancer cell line MX-1', 6.71),
  ('CCNC(=O)c1[nH]c2c(=O)n(C)cc3c2c1CN(c1ccc(C#N)cc1)c1ccc(CS(C)(=O)=O)cc1-3', 'breast cancer cell line MX-1', 8.27);

**Q:** Entry Cn1cc2c3c(c[nH]c3c1=O)C(/C=C/c1ccc(F)cc1)Nc1ccc(CS(C)(=O)=O)cc1-2 (racemic) : reported pEC50 = ?
**A:** 6.26

###

tested on: breast cancer cell line MX-1; test: MX-1 cell line proliferation assay; assay type: cell-based; settings: MX-1 cells, 3-day proliferation assay, Cell Titer Glo; read-out: Cellular proliferation: EC50
Entries annotated with measured pEC50
Hey, just a heads up that pEC50 is the negative log base 10 of the concentration in molar.

Recorded results for 2 compounds are shown here.
INSERT INTO results (compound, experimental_target, quantity_measured, data_value) VALUES
  ('Cn1cc2c3c(c[nH]c3c1=O)CN(C1CCC(NC(=O)OC(C)(C)C)CC1)c1ccc(CS(C)(=O)=O)cc1-2 (mixture of isomers) [Example 196]', 'breast cancer cell line MX-1', 'pEC50', 8.42),
  ('CCNC(=O)c1[nH]c2c(=O)n(C)cc3c2c1CN(c1ccc(Cl)cc1)c1ccccc1-3 [Example 127]', 'breast cancer cell line MX-1', 'pEC50', 7.38);

**Q:** Record COC(=O)CNC(=O)C1c2c[nH]c3c(=O)n(C)cc(c23)-c2cc(CS(C)(=O)=O)ccc2N1c1ccc(F)cc1F (stereo not shown) [Example 155] : what is its pEC50 with breast cancer cell line MX-1?
**A:** 6.46

**Q:** Query the reported pEC50 for breast cancer cell line MX-1; item: Cn1cc2c3c(c[nH]c3c1=O)CN(c1ccc(Cl)cn1)c1ccc(CS(C)(=O)=O)cc1-2 [Example 245]
**A:** 8.96

###

molecular target: BRD4 (BDI_K57-E168) (Homo sapiens); construct: BD1: amino acids K57-E168; made in house; assay: TR-FRET bromodomain binding assay, first bromodomain of BRD4; conditions: TR-FRET assay protocol B (compound 49.02 μM-15.63 nM); 100 nM probe
quantity measured: Ki (nM)
Supply the numeric figure in nM, leaving out any unit text.

**Q:** If you can, please state the reported Ki value of CCOC(=O)C1c2c[nH]c3c(=O)n(C)cc(c23)-c2cc(CS(C)(=O)=O)ccc2N1CC1CC1 (stereo not shown) .
**A:** 51.1

###

Target: BRD4 (BDI_K57-E168) (Homo sapiens, UniProt O60885)
Construct: BD1: amino acids K57-E168; made in house
Assay: TR-FRET bromodomain binding assay, first bromodomain of BRD4
Conditions: TR-FRET assay protocol G (compound 0.92 μM-15 pM); 100 nM probe
Procedure: Bromodomain Domain Binding Assay A time-resolved fluorescence resonance energy transfer (TR-FRET) assay was used to determine the affinities of compounds of the Examples listed in Table 1 for each bromodomain of BRD4. His-tagged first (BD1: amino acids K57-E168) and second (BD2: amino acids […]) bromodomains of BRD4 were expressed and purified. […] After a one-hour equilibration at room temperature, TR-FRET ratios were determined using an Envision multilabel plate reader (Ex 340, Em 495/520). […]
Measured pKi accompanies every entry in the list below.
Convention used: pKi is expressed as -log10 of the molar concentration.

Observe how each entry below is paired with its result.
INSERT INTO measurements (molecule, experimental_target, data_value) VALUES
  ('Cn1cc2c3c(c[nH]c3c1=O)CN(C(=O)Nc1ccc(F)cc1)c1ccc(CS(C)(=O)=O)cc1-2', 'BRD4 (BDI_K57-E168) (Homo sapiens, UniProt O60885)', 7.86),
  ('Cn1cc2c3c(c[nH]c3c1=O)CN(c1ccc(F)cc1)c1ncc(N)cc1-2', 'BRD4 (BDI_K57-E168) (Homo sapiens, UniProt O60885)', 8.35),
  ('Cn1cc2c3c(c[nH]c3c1=O)C(C(=O)NCc1ccccc1)N(c1ccc(F)cc1F)c1ccc(CS(C)(=O)=O)cc1-2 (racemic)', 'BRD4 (BDI_K57-E168) (Homo sapiens, UniProt O60885)', 7.41);

**Q:** I would be grateful if you could share the reported pKi for CN1CCN(C(=O)c2[nH]c3c(=O)n(C)cc4c3c2CN(c2ccc(Cl)cc2)c2ccc(CS(C)(=O)=O)cc2-4)CC1 .
**A:** 8.59

**Q:** State the recorded pKi for this entry: Cn1cc2c3c(c[nH]c3c1=O)CN(C(=O)Oc1ccc3ccccc3c1)c1ccc(CS(C)(=O)=O)cc1-2
**A:** 8.88

**Q:** For the molecule shown here, Cn1cc2c3c(c[nH]c3c1=O)C(c1ccccc1)N(c1ccc(F)cc1F)c1ccc(CS(C)(=O)=O)cc1-2 (centres unmarked) [Example 216] , give the reported pKi.
**A:** 7.24

**Q:** Requested field: pKi. Item: CCOC(=O)N1Cc2c[nH]c3c(=O)n(C)cc(c23)-c2cc(CS(C)(=O)=O)ccc21
**A:** 8.60

**Q:** // returns reported pKi for input COc1cc(OC)cc(C2c3c[nH]c4c(=O)n(C)cc(c34)-c3cc(CS(C)(=O)=O)ccc3N2c2ccc(F)cc2F)c1 (centres unmarked)
**A:** 6.77

**Q:** Look up pKi for this molecule: CCc1ccc(CCNC(=O)N2Cc3c[nH]c4c(=O)n(C)cc(c34)-c3cc(CS(C)(=O)=O)ccc32)cc1
**A:** 7.09

**Q:** Reported pKi for CC(C)C(=O)N1Cc2c[nH]c3c(=O)n(C)cc(c23)-c2cc(CS(C)(=O)=O)ccc21 : what is it?
**A:** 8.23

**Q:** If you can, please state the reported pKi value of Cn1cc2c3c(c[nH]c3c1=O)CN(/C=C(/C=C/c1ccccc1)c1ccccc1)c1c(F)cc(F)cc1-2 .
**A:** 7.19

**Q:** Give its pKi value. Item: CC(C1CCOC1=O)N1Cc2c[nH]c3c(=O)n(C)cc(c23)-c2cc(CS(C)(=O)=O)ccc21 (centres unmarked)
**A:** 8.36

**Q:** Sample CCOC(=O)c1[nH]c2c(=O)n(C)cc3c2c1CN(c1ccc(F)cc1F)c1ccc(CS(C)(=O)=O)cc1-3 — what was its pKi?
**A:** 8.47
